Data provenance: patent US20220306603A1

# PROTOCOL_DETAILS: Microsomal stability in vitro (human liver microsomes)
# CONDITION_SUMMARY: Table 8
MEASURED_PROPERTY: Microsomal stability in vitro CLint (in words)

INSERT INTO results (compound, result) VALUES
  ('COc1ccc2nc3cc(Cl)ccc3c(Nc3ccc(O)c(CN4CCN(C)CC4)c3)c2c1 [Compound F06, reference compound]', 'high'),
  ('COc1ccc2nc3cc(Cl)ccc3c(Nc3ccc(O)c(CN4CCN(CCN(C)C)CC4)c3)c2c1', 'Low'),
  ('CN(C)CCN1CCN(Cc2cc(Nc3c4ccc(Cl)cc4nc4ccc(O)cc34)ccc2O)CC1', 'Moderate'),
  ('COc1ccc2nc3cc(Cl)ccc3c(Nc3cc(CN4CCCC4)c(O)c(CN4CCCC4)c3)c2n1 [Compound D4, pyronaridine, reference compound]', 'Moderate');
